Origin of values: patent US10765662B2

Give CC50 at 3 days for every item shown.
experiment: in vitro; format: cell-based; settings: African green monkey

// known answers, use as guide
COMPOUND: COc1cc(NC(C(=O)c2c[nH]c3cc(OC)c(C)cc23)c2ccc(Cl)cc2OCCO)cc(S(C)(=O)=O)c1 (single isomer, unassigned) [Compound 6A]
CC50 at 3 days: 4.9 µM

COMPOUND: COc1cc(NC(C(=O)c2c[nH]c3cc(F)ccc23)c2ccc(Cl)cc2OCCO)cc(S(C)(=O)=O)c1 (single isomer, unassigned) [Compound 1A]
CC50 at 3 days: > 2.5 µM

Consider now this further compound.
Q: Need CC50 at 3 days, item COc1cc(NC(C(=O)c2c[nH]c3c(C)cc(OC(F)(F)F)cc23)c2ccc(Cl)cc2OCCO)cc(S(C)(=O)=O)c1 (single isomer, unassigned) [Compound 12B]
A: > 2.3 µM

* * *

tested on: Vero cells; assay: in vitro; format: cell-based; settings: African green monkey
Give CC50 for every item shown.
Answers are plain numbers, in µM.

// known answers, use as guide
COMPOUND: COc1cc(NC(C(=O)c2c[nH]c3cc(F)ccc23)c2ccc(Cl)cc2OCCO)cc(S(C)(=O)=O)c1 (single isomer, unassigned) [Compound 1B]
UOM: µM
VAL: 8.4

COMPOUND: COc1cc(NC(C(=O)c2c[nH]c3c(C)c(Cl)ccc23)c2ccc(Cl)cc2OCCO)cc(S(C)(=O)=O)c1 (single isomer, unassigned) [Compound 5B]
UOM: µM
VAL: 3.4

COMPOUND: COc1cc(NC(C(=O)c2c[nH]c3cc(F)c(F)cc23)c2ccc(Cl)cc2OCCO)cc(S(C)(=O)=O)c1 (single isomer, unassigned) [Compound 7B]
UOM: µM
VAL: 9.2

COMPOUND: COc1cc(NC(C(=O)c2c[nH]c3ccc(C(F)(F)F)cc23)c2ccc(Cl)cc2OCCO)cc(S(C)(=O)=O)c1 (single isomer, unassigned) [Compound 9A]
UOM: µM
VAL: 11

COMPOUND: COc1cc(NC(C(=O)c2c[nH]c3ccc(OC(F)(F)F)cc23)c2ccc(Cl)cc2OCCO)cc(S(C)(=O)=O)c1 (single isomer, unassigned) [Compound 10B]
UOM: µM
VAL: 2.4

# map each compound to its CC50
1. COc1cc(NC(C(=O)c2c[nH]c3cc(OC)ccc23)c2ccc(Cl)cc2OCCO)cc(S(C)(=O)=O)c1 (single isomer, unassigned) [Compound 3A]
2. COc1cc(NC(C(=O)c2c[nH]c3cc(Cl)ccc23)c2ccc(Cl)cc2OCCO)cc(S(C)(=O)=O)c1 (single isomer, unassigned) [Compound 2B]

A:
[5.2, 11]

* * *

Give CC50 at 3 days for every item shown.
assay: in vitro; assay type: cell-based; conditions: African green monkey

// known answers, use as guide
COMPOUND: COc1cc(NC(C(=O)c2c[nH]c3cc(OC)c(OC(F)(F)F)cc23)c2ccc(Cl)cc2OCCO)cc(S(C)(=O)=O)c1 (single isomer, unassigned) [Compound 11B]
CC50 at 3 days: > 2.5 µM
//
COMPOUND: COc1cc(NC(C(=O)c2c[nH]c3c(C)c(Cl)ccc23)c2ccc(Cl)cc2OCCO)cc(S(C)(=O)=O)c1 (single isomer, unassigned)
CC50 at 3 days: > 2.5 µM
//
COMPOUND: COc1cc(NC(C(=O)c2c[nH]c3cc(Cl)ccc23)c2ccc(Cl)cc2OCCO)cc(S(C)(=O)=O)c1 (single isomer, unassigned)
CC50 at 3 days: > 2.5 µM
//
COMPOUND: COc1cc(NC(C(=O)c2c[nH]c3c(C)c(F)ccc23)c2ccc(Cl)cc2OCCO)cc(S(C)(=O)=O)c1 (single isomer, unassigned)
CC50 at 3 days: > 2.5 µM
//
COMPOUND: COc1cc(NC(C(=O)c2c[nH]c3ccc(OC(F)(F)F)cc23)c2ccc(Cl)cc2OCCO)cc(S(C)(=O)=O)c1 (single isomer, unassigned) [Compound 10B]
CC50 at 3 days: > 2.4 µM
//
COMPOUND: COc1cc(NC(C(=O)c2c[nH]c3cc(F)c(F)cc23)c2ccc(Cl)cc2OCCO)cc(S(C)(=O)=O)c1 (single isomer, unassigned)
CC50 at 3 days: 2.9 µM
//
COMPOUND: COc1cc(NC(C(=O)c2c[nH]c3ccc(C(F)(F)F)cc23)c2ccc(Cl)cc2OCCO)cc(S(C)(=O)=O)c1 (single isomer, unassigned)
CC50 at 3 days: 2.9 µM

Consider now this further compound.
Q: Need CC50 at 3 days, item COc1cc(NC(C(=O)c2c[nH]c3cc(OC)ccc23)c2ccc(Cl)cc2OCCO)cc(S(C)(=O)=O)c1 (single isomer, unassigned)
A: 5.8 µM
